# SYSTEM TESTED: Interferon-induced, double-stranded RNA-activated protein kinase (Homo sapiens)
# TEST METHOD NOTES: Induction of eIF2alpha phosphorylation (unknown origin) assessed as fold increase in ATF-4 stimulation at 20 uM by dual luciferase reporter assay
# ASSAY SETUP: filed as activator
Outcome label depends on fold change (FC) relative to 5: at/above gives YES, below gives NO.

CC(C)(C)c1ccc(O)c(C2(c3cc(C(C)(C)C)ccc3OCCN3CCNCC3)C(=O)Nc3ccccc32)c1 (stereo unspecified) :: YES

Is fold change (FC) for CC(C)(C)c1ccc(O)c(C2(c3cc(C(C)(C)C)ccc3OCCN3CCCCC3)C(=O)Nc3ccccc32)c1 (stereo unspecified) at or above 5?
NO

Determine whether measured fold change (FC) meets or exceeds 5 for CN1CCN(CCOc2ccc(C(C)(C)C)cc2C2(c3cc(C(C)(C)C)ccc3O)C(=O)Nc3ccccc32)CC1 (stereo unspecified)
YES

Is the recorded value of fold change (FC) equal to or greater than 5 for this molecule? CN(C)CCOc1ccc(C(C)(C)C)cc1C1(c2cc(C(C)(C)C)ccc2O)C(=O)Nc2ccccc21 (stereo unspecified)
NO

Hi, just wondering whether CC(C)(C)c1ccc(OCCO)c(C2(c3cc(C(C)(C)C)ccc3OCCO)C(=O)Nc3ccccc32)c1 shows fold change (FC) of 5 or higher.
NO

---

# TEST METHOD NOTES: Antiproliferative activity against human CRL-2351 cells incubated for 5 days by SRB assay
# Type: functional, cell-based
# ASSAY SETUP: CRL-2351, 120 h
I'd be grateful if you could share measured pIC50 for these entries.
Give bare numbers, as −log10 of the molar value.

Record excerpt, results attached:
CC(C)(C)c1ccc(OCCN2CCCCC2)c(C2(c3cc(C(C)(C)C)ccc3OCCN3CCCCC3)C(=O)Nc3ccccc32)c1 :: 5.67
CC(C)(C)c1ccc(OCCO)c(C2(c3cc(C(C)(C)C)ccc3OCCO)C(=O)Nc3ccccc32)c1 :: 5.57

// next item, pIC50 requested
Per the records, this compound ( CC(C)(C)c1ccc(O)c(C2(c3cc(C(C)(C)C)ccc3OCCN3CCCC3)C(=O)Nc3ccccc32)c1 (stereo not given) ) has pIC50 equal to 6.00
